assay: NCI Yeast Anticancer Drug Screen. Data for the bub3 strain (AID 167); conditions: S. cerevisiae bub3 mutant strain, at 50.0 µM
This is part of a sample that, as a whole, favours compounds with a hit. Of some 79,000 tested, about 15% had one in any assay. Active and inactive are the calls of the source. Cut-off read from the data, not from the text of the source: active = growth inhibition above about 70%; inactive = the rest.
Could you please pick one outcome from this set? active, inactive

Input: Assay outcome for "Cc1nn(C(=O)c2ccncc2)c(C)c1N=Nc1ccccc1[N+](=O)[O-]" : what was it?
Output: inactive

Input: Next entry: "O=C(c1ccc(Cl)cc1)c1ccc([N+](=O)[O-])cc1"
Output: active

Input: Next entry: "O=C(CC(=O)c1ccccc1)CC(=O)c1ccccc1Cl"
Output: active

Input: Next entry: "O=C1C(N2CCOCC2)=C(Cl)C(=O)c2ncccc21"
Output: active

====

Test: NCI Yeast Anticancer Drug Screen. Data for the mlh1 rad18 strain (AID 175)
Conditions: S. cerevisiae mlh1 rad18 strain growth inhibition; at 50.0 µM (retest, dose inferred, filed as 5.0); active compounds read high
Description: Growth inhibition of yeast strains with defined genetic alterations is measured as a screen for potential anti-cancer activity. Selected strains with alterations in DNA damage repair or cell cycle control were exposed to compounds and growth inhibition was measured relative to vehicle treated controls. The strain used in this assay is mlh1 rad18
This is part of a sample that, as a whole, favours compounds with a hit. Of some 79,000 tested, about 15% had one in any assay.
Result type: growth inhibition (%)
One number for each entry, in %.

Recorded results for 3 compounds are shown here.
| Compound | growth inhibition [%] |
| --- | --- |
| Cc1ccc(S(=O)(=O)CC2(Br)Cc3ccccc3C2=O)cc1 (configuration not stated) | 98 |
| ClCc1ccc2ccc3ccc(CCl)nc3c2n1 | 94 |
| CC(C)C(Cl)CC/C(CBr)=C(\Cl)CCl (configuration not stated) | 97 |

Give growth inhibition for each listed item.
1. O=S(=O)(CCCl)Cc1ccccc1
2. Cc1ccsc1C(=S)Nc1ccc(Cl)c(/C=N/OC(C)C)c1
3. O=C(/C=C\c1ccccc1)/C=C/c1ccccc1
4. N#CC(CC(=O)O)C(c1cccc2ccccc12)c1cccc2ccccc12 (configuration not stated)
5. Oc1c(Cl)cc(C(c2cc(Cl)c(O)c(Cl)c2)C(Cl)(Cl)Cl)cc1Cl
6. CCOC(=O)CC[P+](Cc1ccccc1)(c1ccccc1)c1ccccc1

Output:
1: -100; 2: 14; 3: 17; 4: 99; 5: 98; 6: 21

====

assay: NCI Yeast Anticancer Drug Screen. Data for the rad50 strain (AID 155);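 note: 0% = growth of vehicle-only cultures of the same strain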; settings: S. cerevisiae rad50 strain growth inhibition; at 50.0 µM; active compounds read high
The panel holds about 79,000 compounds, 15% with a hit somewhere; the sample as a whole holds those more often.
Think of 90% as a floor: if growth inhibition stands on it or above, it is TRUE; beneath it, FALSE.

Observe how each entry below is paired with its result.
| Compound | Category label |
| --- | --- |
| O=C(c1ccc(Cl)cc1)c1ccc([N+](=O)[O-])cc1 | FALSE |
| Cc1[nH]c2ccccc2c1-c1ccccc1 | TRUE |
| COc1cccc2c1C(=O)c1c(O)c3c(c(O)c1C2=O)CC(O)(C(=O)CO)CC3OC1CC(N)C(O)C(C)O1.[Cl][Pt+2][Cl].[NH2-].[NH2-] (centres undefined) | FALSE |
| CC(=O)N(C1=C(Cl)C(=O)c2ccccc2C1=O)c1ccc([N+](=O)[O-])cc1 | TRUE |

Input: Answer whether growth inhibition of "CC(=O)NNc1nc(C)c(C(=O)NNC(=O)C(=O)Nc2ccc(Cl)c([N+](=O)[O-])c2)s1" is greater than or equal to 90%.
Output: FALSE

Input: Next entry: "C1=Nc2ccccc2C=Nc2ccccc2C=Nc2ccccc2C=Nc2ccccc21.[Cl-].[Pt+2]"
Output: FALSE

Input: Next entry: "CN(C)C(=S)/N=c1\ss/c(=N\C(=S)N(C)C)n1-c1cccc(Cl)c1"
Output: TRUE

Input: Next entry: "Cc1[nH]nc(C(=O)N/N=C/c2cccs2)c1N=NN(C)C"
Output: TRUE
